Let's look at some compounds and their measured half-life at 20 µM.
experiment: Half life in simulated intestinal fluid at 20 uM by LC-MS/MS analysis; assay type: ADME

CC(=O)NCCCC[C@H](NC(=O)C(C)(C)NC(=O)[C@H](Cc1ccc2ccccc2c1)NC(=O)[C@H](Cc1ccc(OCCN)cc1)NC(=O)[C@@H](NC(=O)[C@H](CCC(N)=O)NC(=O)[C@H](Cc1c[nH]c2ccccc12)NC(=O)[C@@H](NC(=O)[C@H](CC(N)=O)NC(=O)[C@@H](NC(=O)[C@@H](Cc1ccccc1)NC(C)=O)C(C)(C)S)[C@@H](C)O)C(C)(C)S)C(=O)N[C@@H](CC(N)=O)C(=O)NCCC(N)=O; > 360 min

API: the following record is the query input.
Complete the entry with half-life at 20 µM for CC(=O)NCCCC[C@](C)(NC(=O)[C@H](Cc1ccc2ccccc2c1)NC(=O)[C@H](Cc1ccc(OCCNC(C)=O)cc1)NC(=O)[C@@H](NC(=O)[C@H](CCC(N)=O)NC(=O)[C@H](Cc1c[nH]c2ccccc12)NC(=O)[C@@H](NC(=O)[C@H](CCC(N)=O)NC(=O)[C@@H](NC(C)=O)C(C)(C)S)[C@@H](C)O)C(C)(C)S)C(=O)N[C@@H](CCC(=O)O)C(=O)N[C@@H](CC(N)=O)C(=O)N[C@@H](C)C(N)=O
> 360 min
